- subjectOfTest: UniProt P11712
- procedureDetails: Inhibition of human CYP2C9 assessed as (S)-Flurbiprofen hydroxylation at 1 uM
- Assay type: ADME
- cond: probe (S)-flurbiprofen
outcomeMeasure: inhibition at 1 µM (%)
The reply should be a number in %, with the unit left off.

Entry Nc1cc(N)c(N)cc1N , inhibition at 1 µM reported as 50

---

- subjectOfTest: Cytochrome P450 2C9 (Homo sapiens)
- Sequence (P11712 whole entry): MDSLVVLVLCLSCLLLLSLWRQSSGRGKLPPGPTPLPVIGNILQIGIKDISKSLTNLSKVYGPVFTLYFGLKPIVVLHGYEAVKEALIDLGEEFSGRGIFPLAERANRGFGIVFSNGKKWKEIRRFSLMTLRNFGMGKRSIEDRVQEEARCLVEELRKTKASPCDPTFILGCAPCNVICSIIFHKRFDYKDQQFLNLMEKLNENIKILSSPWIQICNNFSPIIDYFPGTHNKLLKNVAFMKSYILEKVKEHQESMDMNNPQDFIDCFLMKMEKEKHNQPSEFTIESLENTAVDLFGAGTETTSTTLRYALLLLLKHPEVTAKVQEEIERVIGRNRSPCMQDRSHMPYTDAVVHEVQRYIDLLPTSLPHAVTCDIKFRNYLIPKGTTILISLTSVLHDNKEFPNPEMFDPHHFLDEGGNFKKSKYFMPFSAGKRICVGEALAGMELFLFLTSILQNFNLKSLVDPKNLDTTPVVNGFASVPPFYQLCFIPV
- procedureDetails: Activation of human CYP2C9 assessed as (S)-Flurbiprofen hydroxylation
- Set-up: concentration or dose not given beside the values
outcomeMeasure: activity (%)
The reply should be a number in %, with the unit left off.

Entry O=C(O)c1ccc(S(=O)(=O)c2ccc(C(=O)O)cc2)cc1 , activity reported as -5

Entry Cc1cc(C)nc(NS(=O)(=O)c2ccc(N)cc2)n1 [SULFAMETHAZINE] , activity reported as -18.8

Entry Nc1ccc(S(=O)(=O)c2ccc([N+](=O)[O-])cc2)cc1 , activity reported as -10.6

Entry Nc1ccc(S(=O)(=O)Nc2ncccn2)cc1 [SULFADIAZINE] , activity reported as -17.1

Entry COc1ccc(S(=O)(=O)c2ccc(OC)cc2)cc1 , activity reported as -25

Entry c1ccc2c(c1)sc1ccccc12 [DIBENZOTHIOPHENE] , activity reported as -10.6
